Cited source: patent US20230242662A1

Below, each entry is listed alongside its reported kon.
TESTED_ON: T1, cynoCD46-His (cynomolgus, UniProt A0A2K5WCL8 35-328)
T1 construct: extracellular domain; Immobilised by amine coupling on the SPR chip; not shown: His tag
T1 sequence: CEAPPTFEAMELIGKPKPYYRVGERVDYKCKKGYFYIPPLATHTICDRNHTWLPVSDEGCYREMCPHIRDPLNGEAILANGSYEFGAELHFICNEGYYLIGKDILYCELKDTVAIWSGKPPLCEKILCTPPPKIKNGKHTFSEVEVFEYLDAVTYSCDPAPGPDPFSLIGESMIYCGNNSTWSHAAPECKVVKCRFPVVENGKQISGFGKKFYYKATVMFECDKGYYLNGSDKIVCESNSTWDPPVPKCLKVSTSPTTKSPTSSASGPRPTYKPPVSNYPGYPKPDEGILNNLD
TEST_SUMMARY: SPR, cynoCD46-His immobilised, antibody as analyte, pH 7.4
Field: numeric (M⁻¹ s⁻¹). Do not append units.

{"BINDER": "BAP133-2-02-12 (antibody, V domains shown, also called BAP133-02-02-12; CPE hit BAP133-2-02-12) VH: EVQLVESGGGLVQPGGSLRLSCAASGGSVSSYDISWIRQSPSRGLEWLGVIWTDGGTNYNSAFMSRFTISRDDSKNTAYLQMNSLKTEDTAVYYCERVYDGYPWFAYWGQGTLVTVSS VL: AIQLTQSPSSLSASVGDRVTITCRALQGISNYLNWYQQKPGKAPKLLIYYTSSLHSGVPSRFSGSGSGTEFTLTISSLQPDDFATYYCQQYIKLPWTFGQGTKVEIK", "VALUE_REPORTED": 495000}

Given the binder BA-133-04-04 (antibody, V domains shown, the killing assays used the ADC form; also called CPE hit BA133-04-04) VH: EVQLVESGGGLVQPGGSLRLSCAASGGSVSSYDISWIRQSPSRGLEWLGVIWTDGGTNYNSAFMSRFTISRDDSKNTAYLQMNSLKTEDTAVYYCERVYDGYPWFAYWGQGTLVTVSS VL: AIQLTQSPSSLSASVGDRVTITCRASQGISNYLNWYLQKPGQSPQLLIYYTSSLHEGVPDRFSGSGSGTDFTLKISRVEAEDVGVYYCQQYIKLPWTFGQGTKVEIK , what is its reported kon?
673000

Given the entry BA-133-04-01 (antibody, V domains shown, also called CPE hit BA133-04-01) VH: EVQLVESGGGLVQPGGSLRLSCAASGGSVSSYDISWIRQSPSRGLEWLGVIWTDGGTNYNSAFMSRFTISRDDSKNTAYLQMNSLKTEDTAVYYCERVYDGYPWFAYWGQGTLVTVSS VL: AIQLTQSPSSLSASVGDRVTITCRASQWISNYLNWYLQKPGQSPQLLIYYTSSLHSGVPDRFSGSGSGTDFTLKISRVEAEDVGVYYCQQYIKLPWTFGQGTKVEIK , report its measured kon.
690000
